Hello, the source for this data is patent US12012392B2, in case you need it.

# reported CL/F; entries follow
# experimental-protocol: PK protocol (intravenous and oral administration)
# Type: in vivo, male Sprague Dawley rats
# assay-conditions: male, Sprague Dawley, plasma; rat, oral, dose 3 mg/kg
# Method: Pharmacokinetic parameters were determined in male Sprague Dawley rats (Charles River, UK, 250-350 g; or Vital River Laboratory Animal Technology Co Ltd, Beijing, China, 7-9 weeks old). Animals were individually housed during the study and maintained under a 12 h light/dark cycle. Animals had free access to food and water except that some orally dosed animals were food deprived overnight prior to the study. […]
// units = mL/min/kg; emit number, no label

CC(C)(O)Cn1ccc(S(=O)(=O)NC(=O)Nc2c3c(cc4c2CCC4)CCC3)n1 [Example 10] ... 5.2

Alright, here's another molecule for you.
Noted for C[C@@H](O)Cn1ccc(S(=O)(=O)NC(=O)Nc2c3c(cc4c2CCC4)CCC3)n1 [Example 16] : its CL/F reads 2.6

* * *

# test-target: NLRP3 (Homo sapiens)
# experimental-protocol: THP-1 cells pyroptosis assay
# Format: cell-based
# Set-up: Seed THP-1 cells (25,000 cells/well) containing 1.0 μg/ml LPS; host or cells: THP-1 cells, LPS-primed, nigericin-stimulated
# assay-conditions: LPS 1 μg/ml, nigericin 5 μM, resazurin read-out
experimental-endpoint: IC50

CCn1nc(S(=O)(=O)NC(=O)Nc2c3c(cc4c2CCC4)CCC3)cc1C1(OC)COC1 ... < 40 nM
COCCn1cc(S(=O)(=O)NC(=O)Nc2c3c(cc4c2CCC4)CCC3)cn1 ... 640 to 2560 nM
Cn1nc(S(=O)(=O)NC(=O)Nc2c3c(cc4c2CCC4)CCC3)cc1CC(C)(C)O ... 40 to 160 nM
COC(C)(C)Cn1ccc(S(=O)(=O)NC(=O)Nc2c(C(C)C)cc(F)cc2C(C)C)n1 ... 640 to 2560 nM
CCn1nc(S(=O)(=O)NC(=O)Nc2c(C(C)C)cc(F)cc2C(C)C)cc1C1(O)COC1 ... 160 to 640 nM
O=C(Nc1c2c(cc3c1CCC3)CCC2)NS(=O)(=O)c1cnn(C2CCOC2)c1 (stereo not shown) ... 640 to 2560 nM
C[C@@H](O)Cn1ccc(S(=O)(=O)NC(=O)Nc2c(-c3ccnc(C#N)c3)ccc3c2CCC3)n1 ... < 40 nM
CN(CCO)C(=O)c1cc(S(=O)(=O)NC(=O)Nc2c3c(cc4c2CCC4)CCC3)nn1C ... 40 to 160 nM
O=C(Nc1c2c(cc3c1CCC3)CCC2)NS(=O)(=O)c1ccn(C2CCOCC2)n1 ... 160 to 640 nM
CN(C(=O)c1cc(S(=O)(=O)NC(=O)Nc2c3c(cc4c2CCC4)CCC3)nn1C)C1COC1 ... 640 to 2560 nM

Form field, IC50 with NLRP3 (Homo sapiens), item `CC(C)c1cccc(C(C)C)c1NC(=O)NS(=O)(=O)c1cc(C(=O)N(C)CCO)n(C)n1` : 640 to 2560 nM

Form field, IC50 with NLRP3 (Homo sapiens), item `COC1(c2cc(S(=O)(=O)NC(=O)Nc3c4c(cc5c3CCC5)CCC4)nn2C2CC2)COC1` : < 40 nM

Form field, IC50 with NLRP3 (Homo sapiens), item `COC1CN(CC(C)(C)n2ccc(S(=O)(=O)NC(=O)Nc3c4c(cc5c3CCC5)CCC4)n2)C1` : 40 to 160 nM

Form field, IC50 with NLRP3 (Homo sapiens), item COC1CCN(C(=O)c2cc(S(=O)(=O)NC(=O)Nc3c4c(cc5c3CCC5)CCC4)nn2C)C1 (stereo not shown) : 2560 to 10000 nM

Form field, IC50 with NLRP3 (Homo sapiens), item `Cn1nc(S(=O)(=O)NC(=O)Nc2c3c(cc4c2CCC4)CCC3)cc1C(=O)NCCO` : 2560 to 10000 nM

Form field, IC50 with NLRP3 (Homo sapiens), item `CN(C(=O)c1cc(S(=O)(=O)NC(=O)Nc2c3c(cc4c2CCC4)CCC3)nn1C)C1CCOCC1` : 2560 to 10000 nM

* * *

# test-target: NLRP3 (Homo sapiens, UniProt Q96P20)
# Sequence (Q96P20 whole entry): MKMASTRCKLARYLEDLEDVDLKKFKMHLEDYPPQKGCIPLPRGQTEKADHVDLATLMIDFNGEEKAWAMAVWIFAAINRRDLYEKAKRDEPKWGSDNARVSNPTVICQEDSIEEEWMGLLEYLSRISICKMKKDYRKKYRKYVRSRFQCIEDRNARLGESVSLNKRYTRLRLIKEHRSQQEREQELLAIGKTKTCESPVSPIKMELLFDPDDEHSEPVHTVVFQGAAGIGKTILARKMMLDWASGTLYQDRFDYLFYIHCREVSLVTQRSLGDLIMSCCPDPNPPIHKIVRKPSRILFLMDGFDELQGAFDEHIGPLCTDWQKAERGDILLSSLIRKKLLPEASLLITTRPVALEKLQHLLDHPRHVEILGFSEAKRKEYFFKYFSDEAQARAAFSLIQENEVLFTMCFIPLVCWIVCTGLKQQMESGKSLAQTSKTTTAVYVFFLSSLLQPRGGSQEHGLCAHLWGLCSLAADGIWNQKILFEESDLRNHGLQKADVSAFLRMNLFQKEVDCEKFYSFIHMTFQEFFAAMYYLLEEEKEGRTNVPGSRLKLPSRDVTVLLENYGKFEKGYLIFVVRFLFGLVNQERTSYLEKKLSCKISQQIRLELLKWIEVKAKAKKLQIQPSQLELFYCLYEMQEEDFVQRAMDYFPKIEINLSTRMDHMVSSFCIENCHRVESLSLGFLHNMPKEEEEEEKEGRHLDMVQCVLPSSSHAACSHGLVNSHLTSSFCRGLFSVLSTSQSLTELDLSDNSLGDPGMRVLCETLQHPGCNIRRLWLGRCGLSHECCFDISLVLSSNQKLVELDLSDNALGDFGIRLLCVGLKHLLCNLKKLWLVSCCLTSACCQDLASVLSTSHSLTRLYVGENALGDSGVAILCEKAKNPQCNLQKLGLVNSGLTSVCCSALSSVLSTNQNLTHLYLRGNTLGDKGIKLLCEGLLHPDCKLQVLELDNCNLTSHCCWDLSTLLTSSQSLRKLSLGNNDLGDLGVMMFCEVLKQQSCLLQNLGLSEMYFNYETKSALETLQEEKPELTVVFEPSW
# experimental-protocol: THP-1 cells pyroptosis assay
# Assay type: cell-based
# Design: Seed THP-1 cells (25,000 cells/well) containing 1.0 μg/ml LPS; host or cells: THP-1 cells, LPS-primed, nigericin-stimulated
# assay-conditions: LPS 1 μg/ml, nigericin 5 μM, resazurin read-out
# reported IC50; entries follow

Check out these entries, answers already filled in.
O=C(Nc1c2c(cc3c1CCC3)CCC2)NS(=O)(=O)c1ccn(CC(O)C(F)(F)F)n1 (stereo not shown) ... 40 to 160 nM
O=C(Nc1c2c(cc3c1CCC3)CCC2)NS(=O)(=O)c1ccn(C[C@@H](O)CO)n1 ... 160 to 640 nM
COC1(c2cc(S(=O)(=O)NC(=O)Nc3c4c(cc5c3CCC5)CCC4)nn2C)COC1 ... < 40 nM

Noted for N#Cc1cc(-c2ccc3c(c2NC(=O)NS(=O)(=O)c2ccn(C4CCOC4)n2)CCC3)ccn1 (stereo not shown) : its IC50 reads < 40 nM

Noted for `COc1cc(-c2ccc3c(c2NC(=O)NS(=O)(=O)c2ccn(CC(C)(C)O)n2)CCC3)ccn1` : its IC50 reads < 40 nM

Noted for `COCCn1ccc(S(=O)(=O)NC(=O)Nc2c3c(cc4c2CCC4)CCC3)n1` : its IC50 reads 160 to 640 nM

Noted for `C[C@@H](O)Cn1ccc(S(=O)(=O)NC(=O)Nc2c3c(cc4c2CCC4)CCC3)n1` : its IC50 reads 40 to 160 nM

Noted for `COCCN(C)C(=O)c1cc(S(=O)(=O)NC(=O)Nc2c(C(C)C)cccc2C(C)C)nn1C` : its IC50 reads 2560 to 10000 nM

Noted for `COc1cc(-c2ccc3c(c2NC(=O)NS(=O)(=O)c2ccn(C[C@@H](C)O)n2)CCC3)ccn1` : its IC50 reads < 40 nM

* * *

# experimental-protocol: PK protocol (intravenous and oral administration)
# Format: in vivo, male Sprague Dawley rats
# assay-conditions: male, Sprague Dawley, plasma; rat, intravenous, dose 2.88 mg/kg; read-out: Vdss
experimental-endpoint: Vd
// return the numeric value with its unit appended

Noted for `COCCN(CCOC)C(=O)c1cc(S(=O)(=O)NC(=O)Nc2c3c(cc4c2CCC4)CCC3)nn1C` : its Vd reads 1.84 L/kg

* * *

# experimental-protocol: PK protocol (intravenous and oral administration)
# Assay type: in vivo, male Sprague Dawley rats
# assay-conditions: male, Sprague Dawley, plasma; rat, intravenous, dose 2.88 mg/kg
experimental-endpoint: clearance (mL/min/kg)
// units = mL/min/kg; emit number, no label

Noted for `COCCN(CCOC)C(=O)c1cc(S(=O)(=O)NC(=O)Nc2c3c(cc4c2CCC4)CCC3)nn1C` : its clearance reads 149

* * *

# experimental-protocol: PK protocol (intravenous and oral administration)
# Assay type: in vivo, male Sprague Dawley rats
# assay-conditions: male, Sprague Dawley, plasma; rat, intravenous, dose 1 mg/kg; read-out: Vdss
experimental-endpoint: Vd (L/kg)
// units = L/kg; emit number, no label

Check out these entries, answers already filled in.
O=C(Nc1c2c(cc3c1CCC3)CCC2)NS(=O)(=O)c1ccn(C2CCOC2)n1 (stereo not shown) ... 0.43
C[C@H](O)Cn1ccc(S(=O)(=O)NC(=O)Nc2c3c(cc4c2CCC4)CCC3)n1 ... 0.36
CC(O)C(C)n1ccc(S(=O)(=O)NC(=O)Nc2c3c(cc4c2CCC4)CCC3)n1 (racemic) ... 0.12

Alright, here's another compound for you.
Noted for `C[C@H](CO)n1ccc(S(=O)(=O)NC(=O)Nc2c3c(cc4c2CCC4)CCC3)n1` : its Vd reads 0.09

* * *

# experimental-protocol: PK protocol (intravenous and oral administration)
# Format: in vivo, male Sprague Dawley rats
# assay-conditions: male, Sprague Dawley, plasma; rat, intravenous, dose 2.41 mg/kg
experimental-endpoint: clearance
// return the numeric value with its unit appended

Noted for CN(CCO)C(=O)c1cc(S(=O)(=O)NC(=O)Nc2c3c(cc4c2CCC4)CCC3)nn1C [Example 59] : its clearance reads 114 mL/min/kg

* * *

# experimental-protocol: PK protocol (intravenous and oral administration)
# Type: in vivo, male Sprague Dawley rats
# assay-conditions: male, Sprague Dawley, plasma; rat, oral, dose 3 mg/kg
# reported AUC; entries follow
// return the numeric value with its unit appended

Check out these entries, answers already filled in.
C[C@@H](O)Cn1ccc(S(=O)(=O)NC(=O)Nc2c3c(cc4c2CCC4)CCC3)n1 ... 19600 ng·h/mL
CC(C)(O)Cn1ccc(S(=O)(=O)NC(=O)Nc2c3c(cc4c2CCC4)CCC3)n1 ... 9660 ng·h/mL

Noted for `COCCN(C)C(=O)c1cc(S(=O)(=O)NC(=O)Nc2c3c(cc4c2CCC4)CCC3)nn1C` : its AUC reads 2420 ng·h/mL
